test system: HL-60; assay: Cytotoxicity against human HL60 cells after 72 hrs by MTT assay; assay type: functional, cell-based; details: HL-60, 72 h
parameter: pIC50
For clarity, pIC50 is expressed as the negative log10 of concentration in mol/L.

Record excerpt, results attached:
# input Report pIC50 for C=C(C)[C@@]12OC3(c4ccccc4)O[C@@H]1[C@@H]1[C@@H]4O[C@]4(C)[C@@H](O)[C@]4(O)C(=O)C(C)=C[C@H]4[C@@]1(O3)[C@H](C)[C@@H]2OC(=O)c1ccccc1 please.
# output 6.57

# input Report pIC50 for COc1cccc2c1C(=O)c1c(O)c3c(c(O)c1C2=O)C[C@@](O)(C(=O)CO)C[C@@H]3O[C@H]1C[C@H](N)[C@H](O)[C@H](C)O1 please.
# output 7.40

More entries:
# input Report pIC50 for C=C(C)[C@@]12OC3(c4ccccc4)O[C@@H]1[C@@H]1[C@@H]4O[C@]4(C)[C@@H](O)[C@]4(O)C(=O)[C@@H](C)C[C@H]4[C@@]1(O3)[C@H](C)[C@@H]2OC(=O)c1ccccc1 please.
# output 6.31
